Data credit: the supplement of paper PMC10567573

B1: SEC22B (parent)
chain: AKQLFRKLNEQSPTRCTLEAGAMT

- Variants of: B1
- RUN DESCRIPTION: protein stability index of a GFP-peptide fusion (GPS, HEK-293T) (PSI 1-6); higher = more stable;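 note: lentivirally expressed fusions sorted by FACS into six bins by GFP to DsRed ratio, PSI derived from sequencing read proportions per bin multiplied by bin number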
- CONDITIONS: c terminus: a fixed tail appended
Property: protein stability index; scope: individual variants
Reply: number alone, nothing else.

   alteration                  readout  reported_value
0        L18C  protein stability index            2.66

Asked: Respond only with protein stability index recorded for `S12H`
Given back: 2.13

Asked: Read the entry `L18I` and write its reported protein stability index.
Given back: 2.35

Asked: State its protein stability index for this variant: `S12I`
Given back: 1.86

Asked: # return recorded protein stability index for entry `R6I`
Given back: 1.67

Asked: Provide protein stability index value for the following variant: `T17Y`
Given back: 1.61

Asked: Check the records and state protein stability index for `A22M`
Given back: 2.07
